- System: HCT-116
- assay-text: Growth inhibition of human HCT116 cells at 10 uM after 48 hrs by coulter counter method
- Assay type: functional
- assay-conditions: HCT-116, 48 h, read-out: GI
Parameter inhibition of growth at 10 µM: see the listing below.

Study these solved cases before continuing.
O=C(CCN1CCCCC1)Nc1nnc(-c2ccc(Cl)cc2)s1    < 10%
O=C1CN2N=C(c3ccc(Cl)cc3)SC2=N1    39.9%
O=C1N=C2OC(c3ccc(Cl)cc3)=NN2C1=O    < 10%
O=C1N=C2SC(c3ccc(Cl)cc3)=NN2C1=O    < 10%
O=C1N=C2OC(c3ccccc3)=NN2C1=O    < 10%

Task: Fill in reported inhibition of growth at 10 µM for this entry: O=C1CN2N=C(c3ccccc3)OC2=N1
Output: < 10%

Task: Read off the recorded inhibition of growth at 10 µM for NC1=CC(N)=NC2OC(c3ccc(Cl)cc3)=NN12 (stereo not drawn)
Output: < 10%

Task: Please give the documented inhibition of growth at 10 µM of O=C1N=C2SC(c3ccccc3)=NN2C1=O
Output: < 10%

Task: Specify measured inhibition of growth at 10 µM for O=C1CN2N=C(c3ccccc3)SC2=N1 .
Output: 42.6%

Task: Identify measured inhibition of growth at 10 µM associated with NC1=CC(N)=NC2OC(c3ccccc3)=NN12 (stereo not drawn)
Output: < 10%

Task: Supply measured inhibition of growth at 10 µM of O=C1CN2N=C(c3ccc(Cl)cc3)OC2=N1 in your reply.
Output: < 10%

Task: Report inhibition of growth at 10 µM for NC1=CC(N)=NC2SC(c3ccccc3)=NN12 (stereo not drawn)
Output: < 10%

Task: Hello, please tell me recorded inhibition of growth at 10 µM for this one: NC1=CC(N)=NC2SC(c3ccc(Cl)cc3)=NN12 (stereo not drawn)
Output: < 10%

====

The following compounds are shown together with reported inhibition of growth at 10 µM values.
- Test system: SNB-19
- assay-text: Growth inhibition of human SNB19 cells at 10 uM after 48 hrs by coulter counter method
- Type: functional
- assay-conditions: SNB-19, 48 h, read-out: GI

O=C1N=C2OC(c3ccc(Cl)cc3)=NN2C1=O    < 10%
O=C1CN2N=C(c3ccccc3)OC2=N1    < 10%

Let us move to another entry and its inhibition of growth at 10 µM.
Task: Indicate the recorded inhibition of growth at 10 µM value for this compound: O=C(CCN1CCCCC1)Nc1nnc(-c2ccc(Cl)cc2)s1
Output: < 10%

====

- System: IGROV-1
- assay-text: Growth inhibition of human IGROV1 cells at 10 uM after 48 hrs by coulter counter method
- Type: functional
- assay-conditions: IGROV-1, 48 h, read-out: GI
test-readout: inhibition of growth at 10 µM

Worked cases, answers included:
O=C1CN2N=C(c3ccccc3)OC2=N1    < 10%
O=C(CCN1CCCCC1)Nc1nnc(-c2ccc(Cl)cc2)s1    < 10%
NC1=CC(N)=NC2OC(c3ccc(Cl)cc3)=NN12 (stereo unspecified)    < 10%
NC1=CC(N)=NC2SC(c3ccccc3)=NN12 (stereo unspecified)    15.8%
O=C1CN2N=C(c3ccc(Cl)cc3)OC2=N1    < 10%

Task: Report inhibition of growth at 10 µM, nothing else, for this compound: O=C1N=C2SC(c3ccccc3)=NN2C1=O
Output: < 10%

Task: Tell me measured inhibition of growth at 10 µM for O=C1N=C2SC(c3ccc(Cl)cc3)=NN2C1=O please.
Output: < 10%

Task: Please give measured inhibition of growth at 10 µM of the following entry: O=C1N=C2OC(c3ccc(Cl)cc3)=NN2C1=O
Output: < 10%
